measurement description: Pharmacokinetics of ERL and GEF in Wistar rats after four weeks consumption of water or flavoured water (plasma, UPLC-MS/MS, non-compartmental analysis)
Assay type: in vivo
study conditions: male, Wistar, rat, plasma, po, 20 mg/kg, raw data sheet, from average profile; +Berry FW; read-out: t½ (converted)
property name: half-life (h)

# line notation, property name, numeric result
records = [
    ("C#Cc1cccc(Nc2ncnc3cc(OCCOC)c(OCCOC)cc23)c1", "half-life", 13.3),
    ("COc1cc2ncnc(Nc3ccc(F)c(Cl)c3)c2cc1OCCCN1CCOCC1", "half-life", 17.7),
]

====

measurement description: Pharmacokinetics of ERL and GEF in Wistar rats after four weeks consumption of water or flavoured water (plasma, UPLC-MS/MS, non-compartmental analysis)
Type: in vivo
study conditions: male, Wistar, rat, plasma, po, 20 mg/kg, rats, 20 mg/kg oral; +Berry FW; average; time 24 h; read-out: Conc*10 (ng/mL plasma)
property name: concentration at 24 h (ng/mL)

a. COc1cc2ncnc(Nc3ccc(F)c(Cl)c3)c2cc1OCCCN1CCOCC1
b. C#Cc1cccc(Nc2ncnc3cc(OCCOC)c(OCCOC)cc23)c1
Qu. Recorded concentration at 24 h values differ for a and b ; which one is higher? To answer, give the label that identifies your chosen option.
Ans. a
(a: 81.4 ng/mL, b: 11.9 ng/mL)

====

measurement description: Pharmacokinetics of ERL and GEF in Wistar rats after four weeks consumption of water or flavoured water (plasma, UPLC-MS/MS, non-compartmental analysis)
Assay type: in vivo
study conditions: male, Wistar, rat, plasma, po, 20 mg/kg, rats, 20 mg/kg oral; +Peach FW; average; time 1 h; read-out: Conc*10 (ng/mL plasma)
property name: concentration at 1 h (ng/mL)

I. C#Cc1cccc(Nc2ncnc3cc(OCCOC)c(OCCOC)cc23)c1
II. COc1cc2ncnc(Nc3ccc(F)c(Cl)c3)c2cc1OCCCN1CCOCC1
Qu. // returns I or II , whichever has the lower concentration at 1 h Response format: the label of the selected entry.
Ans. I

====

measurement description: Pharmacokinetics of ERL and GEF in Wistar rats after four weeks consumption of water or flavoured water (plasma, UPLC-MS/MS, non-compartmental analysis)
Assay type: in vivo
study conditions: male, Wistar, rat, plasma, po, 20 mg/kg, rats, 20 mg/kg oral; water (control); n = 5, mean (SD)
property name: Cmax (ng/mL)

A. C#Cc1cccc(Nc2ncnc3cc(OCCOC)c(OCCOC)cc23)c1
B. COc1cc2ncnc(Nc3ccc(F)c(Cl)c3)c2cc1OCCCN1CCOCC1
Qu. Hey, which is lower on measured Cmax, A or B ? // return label of chosen record
Ans. A
(A: 106 ng/mL, B: 406 ng/mL)

====

measurement description: Pharmacokinetics of ERL and GEF in Wistar rats after four weeks consumption of water or flavoured water (plasma, UPLC-MS/MS, non-compartmental analysis)
Format: in vivo
study conditions: male, Wistar, rat, plasma, po, 20 mg/kg, rats, 20 mg/kg oral; four weeks pineapple FW; n = 5, mean (SD); read-out: tmax
property name: Tmax (h)
Just the number in h, nothing appended.

Qu. Quick one: give measured Tmax for COc1cc2ncnc(Nc3ccc(F)c(Cl)c3)c2cc1OCCCN1CCOCC1
Ans. 1.71

====

measurement description: Pharmacokinetics of ERL and GEF in Wistar rats after four weeks consumption of water or flavoured water (plasma, UPLC-MS/MS, non-compartmental analysis)
Type: in vivo
study conditions: male, Wistar, rat, plasma, po, 20 mg/kg, rats, 20 mg/kg oral; +Berry FW; average; time 1 h; read-out: Conc*10 (ng/mL plasma)
property name: concentration at 1 h (ng/mL)

a. C#Cc1cccc(Nc2ncnc3cc(OCCOC)c(OCCOC)cc23)c1 [ERL, Erlotinib]
b. COc1cc2ncnc(Nc3ccc(F)c(Cl)c3)c2cc1OCCCN1CCOCC1 [GEF, Gefitinib]
Qu. Please choose the item with the lower concentration at 1 h value from this pair: a and b Output the label that corresponds to your choice.
Ans. a

====

measurement description: Pharmacokinetics of ERL and GEF in Wistar rats after four weeks consumption of water or flavoured water (plasma, UPLC-MS/MS, non-compartmental analysis)
Type: in vivo
study conditions: male, Wistar, rat, plasma, oral, 20 mg/kg, PKSolver sheet; dose 20 mg/kg; +Lime; time 0.5 h; read-out: Conc
property name: concentration at 0.5 h (ng/mL)

a. C#Cc1cccc(Nc2ncnc3cc(OCCOC)c(OCCOC)cc23)c1
b. COc1cc2ncnc(Nc3ccc(F)c(Cl)c3)c2cc1OCCCN1CCOCC1
Qu. Parameter check: reported concentration at 0.5 h is higher for which label, a or b ? Identify your pick by its label.
Ans. b
(b: 387 ng/mL, a: 164 ng/mL)

====

measurement description: Pharmacokinetics of ERL and GEF in Wistar rats after four weeks consumption of water or flavoured water (plasma, UPLC-MS/MS, non-compartmental analysis)
Assay type: in vivo
study conditions: male, Wistar, rat, plasma, oral, 20 mg/kg, PKSolver sheet; dose 20 mg/kg; +Pineapple; time 0 h; read-out: Conc
property name: concentration at 0 h (ng/mL)

a. C#Cc1cccc(Nc2ncnc3cc(OCCOC)c(OCCOC)cc23)c1
b. COc1cc2ncnc(Nc3ccc(F)c(Cl)c3)c2cc1OCCCN1CCOCC1
Qu. Field: lower concentration at 0 h | Options: a / b Please identify the chosen entry by its label.
Ans. a
(a: 10.6 ng/mL, b: 75.5 ng/mL)

====

measurement description: Pharmacokinetics of ERL and GEF in Wistar rats after four weeks consumption of water or flavoured water (plasma, UPLC-MS/MS, non-compartmental analysis)
Format: in vivo
study conditions: male, Wistar, rat, plasma, po, 20 mg/kg, raw data sheet, from average profile; +Lime FW
property name: Cmax (ng/mL)

I. C#Cc1cccc(Nc2ncnc3cc(OCCOC)c(OCCOC)cc23)c1
II. COc1cc2ncnc(Nc3ccc(F)c(Cl)c3)c2cc1OCCCN1CCOCC1
Qu. Which record shows the lower Cmax: the first, I , or the second, II ? Use the label to indicate which entry you chose.
Ans. I
(I: 164 ng/mL, II: 643 ng/mL)

====

measurement description: Pharmacokinetics of ERL and GEF in Wistar rats after four weeks consumption of water or flavoured water (plasma, UPLC-MS/MS, non-compartmental analysis)
Format: in vivo
study conditions: male, Wistar, rat, plasma, po, 20 mg/kg, raw data sheet, from average profile; +Pineapple FW
property name: Cmax (ng/mL)

a. COc1cc2ncnc(Nc3ccc(F)c(Cl)c3)c2cc1OCCCN1CCOCC1 [GEF, Gefitinib]
b. C#Cc1cccc(Nc2ncnc3cc(OCCOC)c(OCCOC)cc23)c1 [ERL, Erlotinib]
Qu. I'd appreciate it if you could identify which of a and b has the greater Cmax. Return value: the label identifying the chosen record.
Ans. a
(a: 445 ng/mL, b: 120 ng/mL)

====

measurement description: Pharmacokinetics of ERL and GEF in Wistar rats after four weeks consumption of water or flavoured water (plasma, UPLC-MS/MS, non-compartmental analysis)
Assay type: in vivo
study conditions: male, Wistar, rat, plasma, po, 20 mg/kg, rats, 20 mg/kg oral; +Peach FW; average; time 48 h; read-out: Conc*10 (ng/mL plasma)
property name: concentration at 48 h (ng/mL)

A. C#Cc1cccc(Nc2ncnc3cc(OCCOC)c(OCCOC)cc23)c1
B. COc1cc2ncnc(Nc3ccc(F)c(Cl)c3)c2cc1OCCCN1CCOCC1
Qu. Which of the two items, A and B , has the greater recorded concentration at 48 h? Record your answer as the label of the chosen record.
Ans. B

====

measurement description: Pharmacokinetics of ERL and GEF in Wistar rats after four weeks consumption of water or flavoured water (plasma, UPLC-MS/MS, non-compartmental analysis)
Format: in vivo
study conditions: male, Wistar, rat, plasma, oral, 20 mg/kg, PKSolver sheet; dose 20 mg/kg; +Peach; time 3 h; read-out: Conc
property name: concentration at 3 h (ng/mL)

P. C#Cc1cccc(Nc2ncnc3cc(OCCOC)c(OCCOC)cc23)c1 [ERL, Erlotinib]
Q. COc1cc2ncnc(Nc3ccc(F)c(Cl)c3)c2cc1OCCCN1CCOCC1 [GEF, Gefitinib]
Qu. // returns P or Q , whichever has the lower concentration at 3 h I would appreciate it if you answered with the label of your choice.
Ans. P
(P: 43.2 ng/mL, Q: 213 ng/mL)

====

measurement description: Pharmacokinetics of ERL and GEF in Wistar rats after four weeks consumption of water or flavoured water (plasma, UPLC-MS/MS, non-compartmental analysis)
Type: in vivo
study conditions: male, Wistar, rat, plasma, po, 20 mg/kg, rats, 20 mg/kg oral; four weeks lime FW; n = 5, mean (SD); read-out: tmax
property name: Tmax (min)
API: value field is a number in min; no unit string.

Qu. Kindly indicate its recorded Tmax. Item: C#Cc1cccc(Nc2ncnc3cc(OCCOC)c(OCCOC)cc23)c1 [ERL, Erlotinib]
Ans. 30.6
